The entries below are paired with their reported LC50.
System: Rattus norvegicus
ASSAY_SETUP: acute; inhalation
MEASUREMENT_NAME: LC50

>>> endpoint_value("CCCCC(CC)C(=O)O (stereo not given)")
"> 0.015 µg/mL"
>>> endpoint_value("CCOP(=S)(S)OCC")
"1640 mg/m3"
>>> endpoint_value("CC(C)(C)c1cc(CCC(=O)OCC(COC(=O)CCc2cc(C(C)(C)C)c(O)c(C(C)(C)C)c2)(COC(=O)CCc2cc(C(C)(C)C)c(O)c(C(C)(C)C)c2)COC(=O)CCc2cc(C(C)(C)C)c(O)c(C(C)(C)C)c2)cc(C(C)(C)C)c1O")
"> 1.96 µg/mL"
>>> endpoint_value("Cc1cccc([N+](=O)[O-])c1")
"> 2.42 µg/mL"
>>> endpoint_value("CC(C)(c1cc(Br)c(O)c(Br)c1)c1cc(Br)c(O)c(Br)c1")
"> 28200 mg/m3"
